- test.system: D(1A) dopamine receptor (Homo sapiens) (UniProt P21728)
- Sequence (P21728 whole entry, looked up): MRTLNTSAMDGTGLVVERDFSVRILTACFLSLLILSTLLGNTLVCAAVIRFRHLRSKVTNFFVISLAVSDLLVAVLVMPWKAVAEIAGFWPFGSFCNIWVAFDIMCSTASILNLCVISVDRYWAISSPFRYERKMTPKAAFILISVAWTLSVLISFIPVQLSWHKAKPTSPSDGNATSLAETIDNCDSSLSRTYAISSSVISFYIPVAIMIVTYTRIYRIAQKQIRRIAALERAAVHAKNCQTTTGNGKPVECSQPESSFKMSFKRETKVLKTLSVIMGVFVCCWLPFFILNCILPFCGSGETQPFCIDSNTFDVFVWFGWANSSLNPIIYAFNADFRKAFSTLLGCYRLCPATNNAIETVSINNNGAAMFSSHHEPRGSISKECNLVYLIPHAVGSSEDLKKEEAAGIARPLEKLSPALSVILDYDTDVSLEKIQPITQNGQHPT
- protocol: HTS Assay for Allosteric Agonists of the Human D1 Dopamine Receptor: Primary Screen for Agonists (AID 488981)
- stated.conditions: Inducible HEK293 T-REx D1 cells, calcium-flux fluorescence, 180 s kinetic; series mostly up to 41.8 µM
Results filed as inconclusive are left out. Active and inactive are the calls of the source. The call rests on the fitted dose curve; in most records, active means well fitted activation curve with a large enough effect; inconclusive means small, poorly fitted or top-dose-only effect; inactive means flat fitted curve, though single readings scatter.
Write down the outcome that applies. Available outcomes: active, inactive

Reference set (5 entries):
compound | category.label
CC(C)(Sc1ccc(CCN(CCCCC2CCCCC2)C(=O)NC2CCCCC2)cc1)C(=O)O | active
NC(N)=NC(=O)c1nc(Cl)c(N)nc1N | inactive
OC(CCN1CCCCC1)(c1ccccc1)C1CC2C=CC1C2 (stereo unspecified) | inactive
Cc1cccc(-c2[nH]c(C(C)(C)C)nc2-c2ccc3nccnc3c2)n1 | inactive
CC(C)(C)NCC(O)c1ccc(O)c(CO)c1 (stereo unspecified) | inactive

Consider the additional compound presented here.
Request: Which outcome did this test record for the compound "CCCCNc1cc(C(=O)O)cc(S(N)(=O)=O)c1Oc1ccccc1" ?
Response: inactive
